test system: male rats; experiment: Plasma metabolite profiling (GC-MS, LC-MS, SPE-LC-MS) in male rats dosed once daily over 28 days (OECD 407); format: in vivo, rat; conditions: m14; high dose; Table 10a
Counter-ions that a name gives are not always drawn.
The entries below come with measured Stearic acid (C18:0) values attached.
observed_property: Stearic acid (C18:0)

# compound, quantitative_readout
records = [
    ("CC(C)C(=O)Nc1ccc([N+](=O)[O-])c(C(F)(F)F)c1 [Flutamide]", 1.01),
    ("CNCCC(Oc1ccc(C(F)(F)F)cc1)c1ccccc1 (stereo not shown) [Fluoxetine hydrochloride]", 1.2),
]

* * *

system: male rats; assay: Plasma metabolite profiling (GC-MS, LC-MS, SPE-LC-MS) in male rats dosed once daily over 28 days (OECD 407); format: in vivo, rat; conditions: male rats, plasma, high dose, day 28
Marks after values point to notes of the source that are not given here.
observed_property: Androstenedione, ratio versus control

# compound, result
rows = [
    ("CCNC(=O)[C@@H]1CCCN1C(=O)[C@H](CCCNC(=N)N)NC(=O)[C@H](CC(C)C)NC(=O)[C@@H](COC(C)(C)C)NC(=O)[C@H](Cc1ccc(O)cc1)NC(=O)[C@H](CO)NC(=O)[C@H](Cc1c[nH]c2ccccc12)NC(=O)[C@H](Cc1cnc[nH]1)NC(=O)[C@@H]1CCC(=O)N1 [Buserelin acetate a.c., Buserelin acetate]", "0.35 *"),
    ("CC(=O)O[C@]1(C(C)=O)CC[C@H]2[C@@H]3C[C@H](C)C4=CC(=O)CC[C@]4(C)[C@H]3CC[C@@]21C", "0.1 *"),
    ("O=P1(NCCCl)OCCCN1CCCl (stereo not shown) [Ifosfamide]", "0.24 *"),
    ("C[C@@H]1CC2=CC(=O)CC[C@@H]2[C@H]2CC[C@@]3(C)[C@@H](CC[C@]3(C)O)[C@@H]21", "0.46 *"),
]

* * *

tested on: male rats; experiment: Plasma metabolite profiling (GC-MS, LC-MS, SPE-LC-MS) in male rats dosed once daily over 28 days (OECD 407); assay type: in vivo, rat; settings: m7; high dose; Table 10a
Structures can show the parent of a compound that is named as a salt. Marks after values point to notes of the source that are not given here.
The entries below come with measured 3-O-Methylsphingosine (d18:1) values attached.
observed_property: 3-O-Methylsphingosine (d18:1)

# molecule, observed_property, result
rows = [
    ("Cn1cc[nH]c1=S", "3-O-Methylsphingosine (d18:1)", "3.59 *"),
    ("CC(C)C(=O)Nc1ccc([N+](=O)[O-])c(C(F)(F)F)c1 [Flutamide]", "3-O-Methylsphingosine (d18:1)", "1.27 *"),
    ("CNCCC(Oc1ccc(C(F)(F)F)cc1)c1ccccc1 (stereo not shown) [Fluoxetine hydrochloride]", "3-O-Methylsphingosine (d18:1)", 1.33),
    ("Cc1cccc(C)c1N(Cn1cccn1)C(=O)CCl", "3-O-Methylsphingosine (d18:1)", "2.88 *"),
]

* * *

The entries below come with measured Oleic acid (C18:cis[9]1) values attached.
system: male rats; test: Plasma metabolite profiling (GC-MS, LC-MS, SPE-LC-MS) in male rats dosed once daily over 28 days (OECD 407); type: in vivo, rat; details: m14; high dose; Table 10a
Where a name gives a salt, the structure may show the parent alone. Marks after values point to notes of the source that are not given here.
observed_property: Oleic acid (C18:cis[9]1)

# compound, result
data = [
    ("Cc1cccc(C)c1N(Cn1cccn1)C(=O)CCl", "1.82 *"),
    ("CC(C)C(=O)Nc1ccc([N+](=O)[O-])c(C(F)(F)F)c1 [Flutamide]", 1.1),
    ("Cn1cc[nH]c1=S", 0.97),
    ("CNCCC(Oc1ccc(C(F)(F)F)cc1)c1ccccc1 (stereo not shown) [Fluoxetine hydrochloride]", "0.88^"),
]

* * *

The entries below come with measured Nervonic acid (C24:cis[15]1) values attached.
tested on: male rats; experiment: Plasma metabolite profiling (GC-MS, LC-MS, SPE-LC-MS) in male rats dosed once daily over 28 days (OECD 407); format: in vivo, rat; conditions: m28; high dose; Table 10a
Where a name gives a salt, the structure may show the parent alone. Marks after values point to notes of the source that are not given here.
observed_property: Nervonic acid (C24:cis[15]1)

# compound, result
rows = [
    ("CNCCC(Oc1ccc(C(F)(F)F)cc1)c1ccccc1 (stereo not shown) [Fluoxetine hydrochloride]", "1.57 *"),
    ("CC(C)C(=O)Nc1ccc([N+](=O)[O-])c(C(F)(F)F)c1 [Flutamide]", "1.46 *"),
    ("Cc1cccc(C)c1N(Cn1cccn1)C(=O)CCl [Metazachlor]", "3.63 *"),
    ("Cn1cc[nH]c1=S [Methimazole]", "2.23 *"),
]

* * *

The entries below come with measured trans-4-Hydroxyproline values attached.
tested on: male rats; experiment: Plasma metabolite profiling (GC-MS, LC-MS, SPE-LC-MS) in male rats dosed once daily over 28 days (OECD 407); format: in vivo, rat; conditions: m28; high dose; Table 10b
Counter-ions that a name gives are not always drawn. Marks after values point to notes of the source that are not given here.
observed_property: trans-4-Hydroxyproline

# compound, result
rows = [
    ("Cc1cccc(C)c1N(Cn1cccn1)C(=O)CCl [Metazachlor]", "0.84 *"),
    ("Cn1cc[nH]c1=S [Methimazole]", "0.92^"),
    ("CNCCC(Oc1ccc(C(F)(F)F)cc1)c1ccccc1 (stereo not shown) [Fluoxetine hydrochloride]", "0.72 *"),
    ("CC(C)C(=O)Nc1ccc([N+](=O)[O-])c(C(F)(F)F)c1 [Flutamide]", "0.72 *"),
]

* * *

The entries below come with measured Sphingomyelin (d18:1, C16:0) values attached.
test system: male rats; assay: Plasma metabolite profiling (GC-MS, LC-MS, SPE-LC-MS) in male rats dosed once daily over 28 days (OECD 407); type: in vivo, rat; conditions: m7; high dose; Table 14b
Counter-ions that a name gives are not always drawn.
observed_property: Sphingomyelin (d18:1, C16:0)

# compound, quantitative_readout
rows = [
    ("C[C@]12CCC(=O)C=C1CC[C@@H]1[C@@H]2CC[C@@]2(C)[C@H]1CC[C@]2(C)O [17-alpha-Methyltestosterone]", 0.34),
    ("OCCNCCO [Diethanolamine]", 0.68),
    ("C[C@]12C=CC3=C4CCC(=O)C=C4CCC3C1CC[C@@H]2O (stereo partly drawn) [Trenbolone]", 0.23),
    ("O=C(c1ccc(OCCN2CCCCC2)cc1)c1c(-c2ccc(O)cc2)sc2cc(O)ccc12 [Raloxifene Hydrochloride]", 0.52),
    ("CC/C(=C(\\c1ccccc1)c1ccc(OCCN(C)C)cc1)c1ccccc1 [Tamoxifen]", 0.41),
    ("C#C[C@]1(O)CC[C@H]2[C@@H]3CCc4cc(O)ccc4[C@H]3CC[C@@]21C [17-alpha-Ethynylestradiol]", 0.2),
]

* * *

Tested on: male rats
Assay: Plasma metabolite profiling (GC-MS, LC-MS, SPE-LC-MS) in male rats dosed once daily over 28 days (OECD 407)
Assay type: in vivo, rat
Details: m28; high dose; Table 10b
Description: Each dose group in the studies consisted of five rats per sex. Additional groups of each 5 male and female animals served as controls. […] All animals of the animal population were kept under the same constant temperature (20-24±3° C.) and the same constant humidity (30-70%). The animals of the animal population were fed ad libitum. […] Steroids and their metabolites were measured by online SPE-LC-MS (Solid phase extraction-LC-MS). […]
Structures can show the parent of a compound that is named as a salt. Marks after values point to notes of the source that are not given here.
observed_property: Phosphatidylcholine (C16:0, C16:0)

# molecule, observed_property, result
data = [
    ("CC(C)C(=O)Nc1ccc([N+](=O)[O-])c(C(F)(F)F)c1 [Flutamide]", "Phosphatidylcholine (C16:0, C16:0)", "0.81 *"),
    ("Cc1cccc(C)c1N(Cn1cccn1)C(=O)CCl [Metazachlor]", "Phosphatidylcholine (C16:0, C16:0)", "0.79 *"),
    ("CNCCC(Oc1ccc(C(F)(F)F)cc1)c1ccccc1 (stereo not shown) [Fluoxetine hydrochloride]", "Phosphatidylcholine (C16:0, C16:0)", 0.99),
    ("Cn1cc[nH]c1=S [Methimazole]", "Phosphatidylcholine (C16:0, C16:0)", "0.92 *"),
]

* * *

tested on: male rats; assay: Plasma metabolite profiling (GC-MS, LC-MS, SPE-LC-MS) in male rats dosed once daily over 28 days (OECD 407); format: in vivo, rat; details: male rats, plasma, high dose, day 7
Marks after values point to notes of the source that are not given here.

# compound, Testosterone, ratio versus control
data = [
    ("C#C[C@]1(OC(C)=O)CC[C@H]2[C@@H]3CCC4=CC(=O)CC[C@@H]4[C@H]3CC[C@@]21C [Norethindrone acetate]", "0.59 *"),
    ("CCNC(=O)[C@@H]1CCCN1C(=O)[C@H](CCCNC(=N)N)NC(=O)[C@H](CC(C)C)NC(=O)[C@@H](COC(C)(C)C)NC(=O)[C@H](Cc1ccc(O)cc1)NC(=O)[C@H](CO)NC(=O)[C@H](Cc1c[nH]c2ccccc12)NC(=O)[C@H](Cc1cnc[nH]1)NC(=O)[C@@H]1CCC(=O)N1 [Buserelin acetate a.c., Buserelin acetate]", "0.11 *"),
    ("C[C@@H]1CC2=CC(=O)CC[C@@H]2[C@H]2CC[C@@]3(C)[C@@H](CC[C@]3(C)O)[C@@H]21 [Mibolerone]", "0.07 *"),
]
